- Test system: Plasma
- experiment-notes: Fraction unbound in FVB/N mouse plasma at 1 uM after 6 hrs by equilibrium dialysis
- Assay type: ADME, cell-free
measurement-kind: Cp(f)

[
  {
    "structure-as-smiles": "CC(C)Oc1cccc(CN2CC[C@@]3(C[C@@H]2C)CN(C)S(=O)(=O)N3c2cccc(F)c2)c1",
    "measurement-kind": "Cp(f)",
    "reported-value": 0.036
  }
]

A = CC(C)Oc1cccc(CN2CC[C@]3(CNS(=O)(=O)N3c3cccc(F)c3)C[C@@H]2C)c1
B = CC(C)Oc1cc(CN2CC[C@@]3(C[C@@H]2C)CN(C)S(=O)(=O)N3c2cccc(F)c2)ccc1O
Hi team, can someone confirm which has the larger Cp(f): A or B ? Thanks. // respond with label for picked entry B
(B: 0.17, A: 0.041)
